system: MCF-10A; experiment: drug sensitivity score (DSS), CellTiter-Glo (DSS (AUC-based score)); higher = stronger drug effect (viability inhibition or cytotoxicity); extreme values may be limits of the assay; conditions: incubation time: 72 h
Quantity: drug sensitivity score
One number for each entry.

Observe how each entry below is paired with its result.
Compound	Assay Target	Quantity	Reported Measurement
O=C(/C=C/c1cccc(S(=O)(=O)Nc2ccccc2)c1)NO [Belinostat]	MCF-10A	drug sensitivity score	10.8
CNC(=O)c1ccc(N2C(=S)N(c3ccc(C#N)c(C(F)(F)F)c3)C(=O)C23CCC3)cc1F [RD162]	MCF-10A	drug sensitivity score	0
COCC[n+]1c2c(n(Cc3cnccn3)c1C)C(=O)c1ccccc1C2=O [YM155]	MCF-10A	drug sensitivity score	29.5

Would you kindly look at the next entry?
Lookup: Checklist item: drug sensitivity score tested on MCF-10A, entry COc1cc2ncnc(Nc3ccc(F)c(Cl)c3)c2cc1OCCCN1CCOCC1 [Gefitinib] , value?
Found: 17.7

----------
Please provide measured drug sensitivity score for the entries that follow.
test system: CAL-51; experiment: drug sensitivity score (DSS), CellTox Green (DSS (AUC-based score)); higher = stronger drug effect (viability inhibition or cytotoxicity); extreme values may be limits of the assay; settings: incubation time: 72 h
Give bare numbers.

Look over these answered cases.
Molecule	drug sensitivity score
N#Cc1ccc(COC[C@H]2O[C@@H](n3c(NCc4ccc(Cl)c(Cl)c4)nc4c(N)ncnc43)[C@H](O)[C@@H]2O)cc1	0
COc1cc(OC2CCN(C)CC2)ccc1Nc1ncc2c(n1)n(C1CCCC1)c(=O)n2C	9.75

Okay, now this molecule:
Lookup: Please look up its drug sensitivity score: CCOC(=O)CCNc1cc(N2CCc3ccccc3CC2)nc(-c2ccccn2)n1
Found: 11.4

----------
Would you kindly list drug sensitivity score for each of these compounds?
system: MDA-MB-436; experiment: drug sensitivity score (DSS), CellTiter-Blue viability (DSS (AUC-based score)); higher = stronger viability inhibition; extreme values may be limits of the assay; details: incubation time: 72 h

Compound	drug sensitivity score
O=P1(N(CCCl)CCCl)NCCCO1 (stereo not given) [Cyclophosphamide]	0.105
COc1cc(OC2CCN(C)CC2)ccc1Nc1ncc2c(n1)n(C1CCCC1)c(=O)n2C	0
O=C(/C=C/c1cccc(S(=O)(=O)Nc2ccccc2)c1)NO	12.2
Cc1cc(Nc2cc(CN3CCOCC3)c3nc(C)c(Cc4ccc(Cl)cc4F)n3n2)n[nH]1	7.24

Lab note: next compound to report on.
Lookup: I would be grateful if you could share the reported drug sensitivity score for S=P(N1CC1)(N1CC1)N1CC1 .
Found: 0

----------
tested on: CAL-51; assay: drug sensitivity score (DSS), CellTiter-Blue viability (DSS (AUC-based score)); higher = stronger viability inhibition; extreme values may be limits of the assay; settings: incubation time: 72 h
Quantity: drug sensitivity score
Give bare numbers.

Can you give me drug sensitivity score for all of these, one by one?
1. NC(=O)c1ccc(I)c([N+](=O)[O-])c1
2. N#Cc1ccc(COC[C@H]2O[C@@H](n3c(NCc4ccc(Cl)c(Cl)c4)nc4c(N)ncnc43)[C@H](O)[C@@H]2O)cc1
3. CO[C@H]1C[C@@H]2CC[C@@H](C)[C@@](O)(O2)C(=O)C(=O)N2CCCC[C@H]2C(=O)O[C@H]([C@H](C)C[C@@H]2CC[C@@H](OP(C)(C)=O)[C@H](OC)C2)CC(=O)[C@H](C)/C=C(\C)[C@@H](O)[C@@H](OC)C(=O)[C@H](C)C[C@H](C)/C=C/C=C/C=C/1C
4. O=C(Nc1cccnc1)N1CCC(Cc2cccc(Oc3ccc(C(F)(F)F)cn3)c2)CC1
5. Cc1[nH]c2ccccc2c1CCNCc1ccc(/C=C/C(=O)NO)cc1
6. COCC[n+]1c2c(n(Cc3cnccn3)c1C)C(=O)c1ccccc1C2=O
7. COc1cc(OC2CCN(C)CC2)ccc1Nc1ncc2c(n1)n(C1CCCC1)c(=O)n2C

Found:
1. 0
2. 0
3. 22
4. 0.908
5. 15
6. 31.9
7. 8.18
